Test system: PF-382
TEST_DESCRIPTION: selective drug sensitivity score (sDSS, relative to normal bone marrow) (sDSS (score)); higher = more potent and effective on the cell line relative to normal bone marrow cells;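 also: ALL cell lines in 384-well plates, five doses spanning 10,000-fold, each plate scaled between vehicle and 100 µmol/L benzalkonium chloride controls, sDSS an adapted area-under-curve metric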
CONDITION_DESCRIPTION: 72 h
REPORTED_METRIC: selective drug sensitivity score
One number for each entry.

Previously resolved entries follow.
// lookup selective drug sensitivity score for CN1CCN(C2CCN(C(=O)Nc3cc(Oc4ccc(NC(=O)C5(C(=O)Nc6ccc(F)cc6)CC5)c(F)c4)ccn3)CC2)CC1 [Golvatinib] (top concentration 2500 nM)
-0.14

Now the compound C=CC(=O)N1CC/C(=C\c2ccc(F)c([N+](=O)[O-])c2)C(=O)/C(=C/c2ccc(F)c([N+](=O)[O-])c2)C1 [VLX1570] (top concentration 10000 nM)
-1.72

Now the compound COc1cc(Nc2ncc3c(n2)-c2ccc(Cl)cc2C(c2c(F)cccc2OC)=NC3)ccc1C(=O)O [Alisertib] (top concentration 10000 nM)
14.3

Now the compound CCNC(=O)C[C@@H]1N=C(c2ccc(Cl)cc2)c2cc(OC)ccc2-n2c(C)nnc21 [Molibresib] (top concentration 10000 nM)
2.7

Now the compound COc1ccc(-c2ccc3c(N4CCOC[C@@H]4C)nc(N4CCOC[C@@H]4C)nc3n2)cc1CO [AZD8055] (top concentration 10000 nM)
9.18

Now the compound CO[C@H](C(=O)[C@@H](O)[C@@H](C)O)[C@@H]1Cc2cc3cc(O[C@H]4C[C@@H](O[C@H]5C[C@@H](O)[C@H](O)[C@@H](C)O5)[C@@H](O)[C@@H](C)O4)c(C)c(O)c3c(O)c2C(=O)[C@H]1O[C@H]1C[C@@H](O[C@H]2C[C@@H](O[C@H]3C[C@](C)(O)[C@H](O)[C@@H](C)O3)[C@H](O)[C@@H](C)O2)[C@H](O)[C@@H](C)O1 [Plicamycin] (top concentration 10000 nM)
-12.1

Batch: selective drug sensitivity score for all items listed.
1. O=C(O)c1ccc(CN2CCC(CN[C@@H]3C[C@H]3c3ccccc3)CC2)cc1 (top concentration 100000 nM)
2. CC(=O)O[C@]1(C(C)=O)CC[C@H]2[C@@H]3C=C(C)C4=CC(=O)CC[C@]4(C)[C@H]3CC[C@@]21C [Megestrol_acetate] (top concentration 10000 nM)
3. Cn1ncc(Cl)c1-c1cc(C(=O)N[C@H](CN)Cc2ccc(F)c(F)c2)oc1Cl [Uprosertib] (top concentration 10000 nM)
4. CN(C)C1CCN(C(=O)c2ccc(NC(=O)Nc3ccc(-c4nc(N5CCOCC5)nc(N5CCOCC5)n4)cc3)cc2)CC1 [Gedatolisib] (top concentration 1000 nM)

1: -0.42; 2: 0.32; 3: 4.6; 4: 5.06

----------
Test system: KOPN-8
TEST_DESCRIPTION: selective drug sensitivity score (sDSS, relative to normal bone marrow) (sDSS (score)); higher = more potent and effective on the cell line relative to normal bone marrow cells
CONDITION_DESCRIPTION: 72 h
REPORTED_METRIC: selective drug sensitivity score
Numbers only.

Previously resolved entries follow.
Please provide the recorded selective drug sensitivity score for CCCCOc1nc(N)c2c(n1)N(Cc1cccc(CN3CCCC3)c1)CC(=O)N2 [Vesatolimod] (top concentration 10000 nM) , tested on KOPN-8.
-3.22

Now the compound COc1cc(C(=O)O)ccc1NC(=O)[C@@H]1N[C@@H](CC(C)(C)C)[C@](C#N)(c2ccc(Cl)cc2F)[C@H]1c1cccc(Cl)c1F [Idasanutlin] (top concentration 10000 nM)
25.7

Now the compound NC(=O)/C(=C/n1cnc(-c2cc(C(F)(F)F)cc(C(F)(F)F)c2)n1)c1cncnc1 [Eltanexor] (top concentration 10000 nM)
14.2

Batch: selective drug sensitivity score for all items listed.
1. Nc1cc(C(F)(F)F)c(-c2cc(N3CCOCC3)nc(N3CCOCC3)n2)cn1 [Buparlisib] (top concentration 10000 nM)
2. O=C(NOCCO)c1ccc2cncn2c1Nc1ccc(I)cc1F [GDC-0623] (top concentration 2500 nM)
3. N#CC1(c2ccc(NC(=O)c3cccnc3NCc3ccncc3)cc2)CCCC1 [Apatinib] (top concentration 10000 nM)

7.28
-1.2
0.1

----------
System: KASUMI-10
TEST_DESCRIPTION: selective drug sensitivity score (sDSS, relative to normal bone marrow) (sDSS (score)); higher = more potent and effective on the cell line relative to normal bone marrow cells
CONDITION_DESCRIPTION: 72 h
Quick rule: selective drug sensitivity score of at least 0 means satisfied, below that means not satisfied.

Does O=C(/C=C/c1cccc(S(=O)(=O)Nc2ccccc2)c1)NO [Belinostat] (top concentration 10000 nM) have a reported selective drug sensitivity score of at least 0?
satisfied

Now the compound COCCNCc1ccc(-c2cc3nccc(Oc4ccc(NC(=O)C5(C(=O)Nc6ccc(F)cc6)CC5)cc4F)c3s2)nc1 [Sitravatinib] (top concentration 2500 nM)
satisfied

Now the compound CO[C@@H]1[C@H](N(C)C(=O)c2ccccc2)C[C@H]2O[C@]1(C)n1c3ccccc3c3c4c(c5c6ccccc6n2c5c31)C(=O)NC4 [Midostaurin] (top concentration 10000 nM)
satisfied

Now the compound CN(C)C(=O)c1ccc(S(=O)(=O)c2ccc(NC(=O)[C@@](C)(O)C(F)(F)F)c(Cl)c2)cc1 [AZD7545] (top concentration 10000 nM)
not satisfied

Now the compound CC1(C)C(C(=O)Nc2ccc(S(=O)(=O)c3ccc(NC(=O)C4C(C)(C)C4(C)C)cc3)cc2)C1(C)C [BRD7116] (top concentration 10000 nM)
satisfied

Others:
Does NC1(c2ccc(-c3nc4ccn5c(=O)[nH]nc5c4cc3-c3ccccc3)cc2)CCC1 [MK-2206] (top concentration 1000 nM) have a reported selective drug sensitivity score of at least 0?
not satisfied

Now the compound O=C(O)CC1CC(c2ccccc2)=NO1 (stereo not drawn) [VGX-1027] (top concentration 10000 nM)
not satisfied

Now the compound Cc1nc2cccc(N)c2c(=O)n1C1CCC(=O)NC1=O (stereo not drawn) [Avadomide (CC122)] (top concentration 10000 nM)
satisfied

----------
Provide the recorded selective drug sensitivity score for the entries that follow.
System: KARPAS-45
TEST_DESCRIPTION: selective drug sensitivity score (sDSS, relative to normal bone marrow) (sDSS (score)); higher = more potent and effective on the cell line relative to normal bone marrow cells
CONDITION_DESCRIPTION: 72 h
Numbers only.

// lookup selective drug sensitivity score for CNC(=O)c1cccc(-c2ccc3c(N4CCOC[C@@H]4C)nc(N4CCOC[C@@H]4C)nc3n2)c1 [Vistusertib] (top concentration 10000 nM)
5.02

Now the molecule CN(C(=O)c1ccc(F)cc1C(F)(F)F)C1CCN(c2nnc(-c3ccnn3C)c3ccccc23)CC1 [Taladegib] (top concentration 10000 nM)
-0.92

Now the molecule C[C@@H]1CCN(C(=O)CC#N)C[C@@H]1N(C)c1ncnc2[nH]ccc12 [Tofacitinib] (top concentration 5000 nM)
-7.86

Now the molecule CC[C@@H]1CN(C(=O)NCC(F)(F)F)C[C@@H]1c1cnc2cnc3[nH]ccc3n12 [Upadacitinib] (top concentration 10000 nM)
-7.16

Now the molecule CC(C)C[C@H](NC(=O)[C@@H](COC(C)(C)C)NC(=O)[C@H](Cc1ccc(O)cc1)NC(=O)[C@H](CO)NC(=O)[C@H](Cc1c[nH]c2ccccc12)NC(=O)[C@H](Cc1cnc[nH]1)NC(=O)[C@@H]1CCC(=O)N1)C(=O)N[C@@H](CCCNC(=N)N)C(=O)N1CCC[C@H]1C(=O)NNC(N)=O [Goserelin] (top concentration 10000 nM)
-0.06

Now the molecule CC[C@H](CC#N)OC(=O)N[C@@H](C)c1cccc(NC(=O)Nc2ccc(-c3cnco3)c(OC)c2)c1 [AVN944] (top concentration 10000 nM)
8.84

Batch: selective drug sensitivity score for all items listed.
1. Cc1ccc(NS(=O)(=O)c2cccc(C#N)c2)c2[nH]cc(C#N)c12 [E7820] (top concentration 50000 nM)
2. Cc1nc2cccc(N)c2c(=O)n1C1CCC(=O)NC1=O (configuration not stated) [Avadomide (CC122)] (top concentration 10000 nM)
3. CCS(=O)(=O)Nc1ccc(Oc2ccc(F)cc2F)c(-c2cn(C)c(=O)c3[nH]ccc23)c1 [Mivebresib] (top concentration 10000 nM)

1. 20.1
2. 0
3. 14

Batch: selective drug sensitivity score for all items listed.
1. CC1(C)CCC(c2ccc(Cl)cc2)=C(CN2CCN(c3ccc(C(=O)NS(=O)(=O)c4ccc(N[C@H](CCN5CCOCC5)CSc5ccccc5)c(S(=O)(=O)C(F)(F)F)c4)cc3)CC2)C1 [Navitoclax] (top concentration 10000 nM)
2. CC(=O)O[C@H]1C(=O)[C@@]2(C)[C@H]([C@H](OC(=O)c3ccccc3)[C@]3(O)C[C@H](OC(=O)[C@H](O)[C@@H](NC(=O)c4ccccc4)c4ccccc4)C(C)=C1C3(C)C)[C@]1(OC(C)=O)CO[C@@H]1C[C@@H]2O [Paclitaxel] (top concentration 1000 nM)
3. COCCNCc1ccc(-c2cc3nccc(Oc4ccc(NC(=O)C5(C(=O)Nc6ccc(F)cc6)CC5)cc4F)c3s2)nc1 [Sitravatinib] (top concentration 2500 nM)
4. COc1cc(N2CCN(C)CC2)ccc1Nc1nccc(-c2cn(C)c3cnccc23)n1 [AZ191] (top concentration 10000 nM)
5. CNC(=O)c1ccc(C)c(-n2c(C)cc(OCc3ccc(F)cc3F)c(Br)c2=O)c1 (top concentration 1000 nM)

1: 22.8; 2: 18.3; 3: 3.78; 4: 0.98; 5: 0

Batch: selective drug sensitivity score for all items listed.
1. Cc1nc(Nc2n[nH]c3c2CN(C(=O)N[C@H](CN(C)C)c2ccccc2)C3(C)C)c2sccc2n1 (top concentration 10000 nM)
2. O=C(Nc1nc2cccc(-c3ccc(CN4CCS(=O)(=O)CC4)cc3)n2n1)C1CC1 [Filgotinib] (top concentration 10000 nM)
3. Cc1ccc(-c2cc(C(F)(F)F)nn2-c2ccc(S(N)(=O)=O)cc2)cc1 [Celecoxib] (top concentration 10000 nM)
4. CCCCC(=O)OCC(=O)[C@]1(O)Cc2c(O)c3c(c(O)c2[C@@H](O[C@H]2C[C@H](NC(=O)C(F)(F)F)[C@H](O)[C@H](C)O2)C1)C(=O)c1c(OC)cccc1C3=O [Valrubicin] (top concentration 5000 nM)

1. 9.48
2. -1.04
3. 0.34
4. -2.62

Values were extracted from the supplement of paper PMC8967900.
